# test-system: T1, human MSLN-R1-his protein (human, UniProt Q13421 296-390)
# T1 construct: Made in HEK293E cells, purified on nickel column; also called hMSLN-R1-his; human MSLN-R1 protein; not shown: His tag
# T1 chain: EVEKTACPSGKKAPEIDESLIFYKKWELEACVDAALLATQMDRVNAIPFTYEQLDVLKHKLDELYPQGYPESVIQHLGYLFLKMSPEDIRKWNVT
# method: ELISA, coated antigen, antibody 0.0002 nM
OD450 for assorted binders
// print number alone

Known results for binders:
S009-F7.66.12 chimeric antibody (antibody, human IgG1, kappa, V domains shown, Human-murine chimeric antibody, human IgG1/kappa constant regions) VH: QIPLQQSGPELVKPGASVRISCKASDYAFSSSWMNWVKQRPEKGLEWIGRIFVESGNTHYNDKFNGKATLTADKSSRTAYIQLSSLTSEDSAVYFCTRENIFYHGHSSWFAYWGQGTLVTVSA VL: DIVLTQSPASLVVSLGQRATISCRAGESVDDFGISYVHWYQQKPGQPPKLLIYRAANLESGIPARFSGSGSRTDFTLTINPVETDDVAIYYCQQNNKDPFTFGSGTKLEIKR | 0.06
S009-F7.18.10 chimeric antibody (antibody, human IgG1, kappa, V domains shown, Human-murine chimeric antibody, human IgG1/kappa constant regions) VH: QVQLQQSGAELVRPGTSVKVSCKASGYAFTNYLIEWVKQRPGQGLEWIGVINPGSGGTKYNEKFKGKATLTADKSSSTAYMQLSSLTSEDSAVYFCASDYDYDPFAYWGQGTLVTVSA VL: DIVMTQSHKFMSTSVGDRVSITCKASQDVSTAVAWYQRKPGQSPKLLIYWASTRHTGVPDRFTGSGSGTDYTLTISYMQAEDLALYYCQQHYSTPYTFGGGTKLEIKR | 0.38
S009-F7.11.11 chimeric antibody (antibody, human IgG1, kappa, V domains shown, Human-murine chimeric antibody, human IgG1/kappa constant regions) VH: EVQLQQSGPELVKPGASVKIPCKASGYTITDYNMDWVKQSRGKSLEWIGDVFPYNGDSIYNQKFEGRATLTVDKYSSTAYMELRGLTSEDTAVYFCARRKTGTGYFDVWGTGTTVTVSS VL: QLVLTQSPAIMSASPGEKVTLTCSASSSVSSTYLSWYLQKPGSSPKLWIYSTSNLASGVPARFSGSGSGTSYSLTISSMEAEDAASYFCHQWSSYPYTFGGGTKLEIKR | 0.05
S009-F7.23.19 chimeric antibody (antibody, human IgG1, kappa, V domains shown, Human-murine chimeric antibody, human IgG1/kappa constant regions) VH: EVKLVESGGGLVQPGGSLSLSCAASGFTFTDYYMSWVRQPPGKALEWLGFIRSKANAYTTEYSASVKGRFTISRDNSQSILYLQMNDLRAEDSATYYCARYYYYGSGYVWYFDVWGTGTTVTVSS VL: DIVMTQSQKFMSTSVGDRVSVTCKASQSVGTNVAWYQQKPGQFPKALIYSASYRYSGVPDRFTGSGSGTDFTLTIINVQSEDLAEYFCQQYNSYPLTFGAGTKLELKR | 0.05

// next item, OD450 requested
Query :: Report OD450 for S009-F7.61.21 chimeric antibody (antibody, human IgG1, kappa, V domains shown, Human-murine chimeric antibody, human IgG1/kappa constant regions) VH: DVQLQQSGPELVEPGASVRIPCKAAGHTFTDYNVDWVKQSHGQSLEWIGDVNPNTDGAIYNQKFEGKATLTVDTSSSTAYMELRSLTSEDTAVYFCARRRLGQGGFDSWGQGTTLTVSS VL: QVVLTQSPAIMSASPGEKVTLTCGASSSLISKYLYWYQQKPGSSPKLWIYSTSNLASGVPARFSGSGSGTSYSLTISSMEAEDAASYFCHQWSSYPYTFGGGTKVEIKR please.
Result :: 0.05
